# assay_notes: Cmax in ICR mouse at 30 mg/kg, po measured after 24 hrs by LC-MS/MS analysis
# Assay type: ADME, organism-based
# Design: time 24 hrs, dose 30 mg/kg, route po
# conditions_used: in vivo
measured_endpoint: Cmax (ng/mL)
Please reply with the bare figure in ng/mL and do not write the unit itself.

| smiles_structure | measurement_units | Cmax |
| --- | --- | --- |
| CC(C)c1cc(Oc2c(Cl)cc(-n3nc(C#N)c(=O)[nH]c3=O)cc2Cl)n[nH]c1=O | ng/mL | 12100 |
| Cn1c(=O)ccc2c1ccn2-c1c(Cl)cc(-n2nc(C#N)c(=O)[nH]c2=O)cc1Cl | ng/mL | 2170 |
| Cc1c(O)ccc2c1ccn2-c1c(Cl)cc(-n2nc(C#N)c(=O)[nH]c2=O)cc1Cl | ng/mL | 2080 |

# evaluate next
Field Cmax (entry CC(C)n1c(=O)ccc2c1ccn2-c1c(Cl)cc(-n2nc(C#N)c(=O)[nH]c2=O)cc1Cl ) reads 2830

###

# assay_notes: AUClast in ICR mouse at 30 mg/kg, po measured after 24 hrs by LC-MS/MS analysis
# Assay type: ADME, organism-based
# Set-up: dose 30 mg/kg, time 24 hrs, route po
# conditions_used: in vivo
Entries and their measured AUC(0-t) at 24 h follow.
Write down the value, and be sure its unit follows.

| smiles_structure | AUC(0-t) at 24 h |
| --- | --- |
| CC(C)n1c(=O)ccc2c1ccn2-c1c(Cl)cc(-n2nc(C#N)c(=O)[nH]c2=O)cc1Cl | 37500 ng·h/mL |
| CC(C)c1cc(Oc2c(Cl)cc(-n3nc(C#N)c(=O)[nH]c3=O)cc2Cl)n[nH]c1=O | 168000 ng·h/mL |
| Cc1c(O)ccc2c1ccn2-c1c(Cl)cc(-n2nc(C#N)c(=O)[nH]c2=O)cc1Cl | 5990 ng·h/mL |

# evaluate next
Field AUC(0-t) at 24 h (entry Cn1c(=O)ccc2c1ccn2-c1c(Cl)cc(-n2nc(C#N)c(=O)[nH]c2=O)cc1Cl ) reads 26000 ng·h/mL

###

# assay_notes: Metabolic stability in rat liver microsomes assessed as half life
# Assay type: ADME, Microsome
measured_endpoint: half-life (h)
Please reply with the bare figure in h and do not write the unit itself.

// below: answered compounds
| smiles_structure | recorded_value |
| --- | --- |
| CC(C)c1cc(Oc2c(Cl)cc(-n3nc(C#N)c(=O)[nH]c3=O)cc2Cl)n[nH]c1=O | 4.08 |
| CC(C)n1c(=O)ccc2c1ccn2-c1c(Cl)cc(-n2nc(C#N)c(=O)[nH]c2=O)cc1Cl | 3.48 |

# evaluate next
Field half-life (entry Cn1c(=O)ccc2c1ccn2-c1c(Cl)cc(-n2nc(C#N)c(=O)[nH]c2=O)cc1Cl ) reads 3.43

###

# assay_notes: Tmax in ICR mouse serum at 10 mg/kg, po measured after 24 hrs by LC-MS/MS analysis
# Type: ADME, organism-based
measured_endpoint: Tmax (h)
Please reply with the bare figure in h and do not write the unit itself.

| compound | measurement_units | recorded_value |
| --- | --- | --- |
| CC(C)c1cc(Oc2c(Cl)cc(-n3nc(C#N)c(=O)[nH]c3=O)cc2Cl)n[nH]c1=O [RESMETIROM] | h | 2.7 |

# evaluate next
Field Tmax (entry CC(C)n1c(=O)ccc2c1ccn2-c1c(Cl)cc(-n2nc(C#N)c(=O)[nH]c2=O)cc1Cl ) reads 6

###

# assay_notes: Tmax in ICR mouse liver at 10 mg/kg, po measured after 24 hrs by LC-MS/MS analysis
# Format: ADME, organism-based
measured_endpoint: Tmax (h)
Please reply with the bare figure in h and do not write the unit itself.

| compound | measurement_units | Tmax |
| --- | --- | --- |
| CC(C)n1c(=O)ccc2c1ccn2-c1c(Cl)cc(-n2nc(C#N)c(=O)[nH]c2=O)cc1Cl | h | 4 |

# evaluate next
Field Tmax (entry CC(C)c1cc(Oc2c(Cl)cc(-n3nc(C#N)c(=O)[nH]c3=O)cc2Cl)n[nH]c1=O [RESMETIROM] ) reads 4

###

# assay_notes: Cmax in ICR mouse liver at 10 mg/kg, po measured after 24 hrs by LC-MS/MS analysis
# Type: ADME, organism-based
# Design: dose 10 mg/kg, time 24 hrs, route po
measured_endpoint: Cmax (ng/g)
Please reply with the bare figure in ng/g and do not write the unit itself.

| smiles_structure | Cmax [ng/g] |
| --- | --- |
| CC(C)c1cc(Oc2c(Cl)cc(-n3nc(C#N)c(=O)[nH]c3=O)cc2Cl)n[nH]c1=O | 24300 |

# evaluate next
Field Cmax (entry CC(C)n1c(=O)ccc2c1ccn2-c1c(Cl)cc(-n2nc(C#N)c(=O)[nH]c2=O)cc1Cl ) reads 99000

###

# assay_notes: Metabolic stability in dog liver microsomes assessed as half life
# Assay type: ADME, Canis lupus familiaris, Microsome
measured_endpoint: half-life (min)
Please reply with the bare figure in min and do not write the unit itself.

Field half-life (entry CC(C)n1c(=O)ccc2c1ccn2-c1c(Cl)cc(-n2nc(C#N)c(=O)[nH]c2=O)cc1Cl ) reads 15

###

Entries and their measured Ratio follow.
# assay_notes: Fold of selectivity, ratio of compound EC50/T3 EC50 for THRalpha to ratio of compound EC50/T3 EC50 for THRbeta
Give the figure only, with no unit attached.

// below: answered compounds
| smiles_structure | Ratio |
| --- | --- |
| CC(C)n1c(=O)ccc2c1ccn2-c1c(Cl)cc(NC(=O)c2noc(=O)[nH]2)cc1Cl | 6.4 |
| N#Cc1nn(-c2cc(Cl)c(-n3ccc4cc(O)ccc43)c(Cl)c2)c(=O)[nH]c1=O | 4.1 |
| Cn1c(=O)ccc2c1ccn2-c1c(Cl)cc(-n2nc(C#N)c(=O)[nH]c2=O)cc1Cl | 6 |
| N#Cc1nn(-c2cc(Cl)c(-n3ccc4c3ccc(=O)n4CC(F)(F)F)c(Cl)c2)c(=O)[nH]c1=O | 7.4 |

# evaluate next
Field Ratio (entry Cc1c(O)ccc2c1ccn2-c1c(Cl)cc(-n2nc(C#N)c(=O)[nH]c2=O)cc1Cl ) reads 2.9

###

# test_system: Thyroid hormone receptor beta (Homo sapiens)
# Sequence (P10828 whole entry): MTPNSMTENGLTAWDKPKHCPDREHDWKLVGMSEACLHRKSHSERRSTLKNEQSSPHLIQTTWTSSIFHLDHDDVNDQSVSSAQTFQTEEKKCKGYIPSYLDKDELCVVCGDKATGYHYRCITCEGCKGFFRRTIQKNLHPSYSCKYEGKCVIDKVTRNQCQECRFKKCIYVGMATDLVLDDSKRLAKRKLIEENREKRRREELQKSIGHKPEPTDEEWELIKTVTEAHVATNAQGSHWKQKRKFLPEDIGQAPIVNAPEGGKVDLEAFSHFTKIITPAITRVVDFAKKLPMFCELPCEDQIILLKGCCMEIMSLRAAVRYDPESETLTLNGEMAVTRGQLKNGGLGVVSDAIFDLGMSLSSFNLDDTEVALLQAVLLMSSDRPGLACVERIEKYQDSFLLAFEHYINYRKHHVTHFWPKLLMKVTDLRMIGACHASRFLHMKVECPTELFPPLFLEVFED
# assay_notes: Agonist activity at human THRbeta transfected in Huh7 cells co-transfected with luciferase reporter plasmid assessed as […] luciferase activity incubated for 16 hrs by Steady-Glo luciferase assay
# Format: cell-based, Huh-7
measured_endpoint: pEC50
Friendly reminder that pEC50 comes from taking -log10 of the concentration in mol/L.

| smiles_structure | test_system | pEC50 |
| --- | --- | --- |
| Cc1c(O)ccc2c1ccn2-c1c(Cl)cc(-n2nc(C#N)c(=O)[nH]c2=O)cc1Cl | Thyroid hormone receptor beta (Homo sapiens) | 7.52 |

# evaluate next
Field pEC50 (entry CC(C)n1c(=O)ccc2c1ccn2-c1c(Cl)cc(NC(=O)c2noc(=O)[nH]2)cc1Cl ) reads 6.70

###

# assay_notes: Tmax in ICR mouse at 30 mg/kg, po measured after 24 hrs by LC-MS/MS analysis
# Format: ADME, organism-based
# conditions_used: in vivo
Entries and their measured Tmax follow.
Please reply with the bare figure in h and do not write the unit itself.

| smiles_structure | Tmax [h] |
| --- | --- |
| Cc1c(O)ccc2c1ccn2-c1c(Cl)cc(-n2nc(C#N)c(=O)[nH]c2=O)cc1Cl | 0.42 |
| CC(C)n1c(=O)ccc2c1ccn2-c1c(Cl)cc(-n2nc(C#N)c(=O)[nH]c2=O)cc1Cl | 8 |
| Cn1c(=O)ccc2c1ccn2-c1c(Cl)cc(-n2nc(C#N)c(=O)[nH]c2=O)cc1Cl | 3 |

# evaluate next
Field Tmax (entry CC(C)c1cc(Oc2c(Cl)cc(-n3nc(C#N)c(=O)[nH]c3=O)cc2Cl)n[nH]c1=O ) reads 6

###

# assay_notes: Fold of selectivity, ratio of compound EC50/T3 EC50 for THRalpha to ratio of compound EC50/T3 EC50 for THRbeta
# true = Ratio below 4 (exclusive); false = Ratio at/above 4

| smiles_structure | group |
| --- | --- |
| CC(C)n1c(=O)ccc2c1ccn2-c1c(Cl)cc(-c2n[nH]c(=O)[nH]c2=O)cc1Cl | true |
| N#Cc1nn(-c2cc(Cl)c(-n3ccc4c3ccc(=O)n4C3CC3)c(Cl)c2)c(=O)[nH]c1=O | false |
| N#Cc1nn(-c2cc(Cl)c(-n3ccc4c3ccc(=O)n4C3CCC3)c(Cl)c2)c(=O)[nH]c1=O | false |

Prompt: Find out if reported Ratio for N#Cc1nn(-c2cc(Cl)c(-n3ccc4c3ccc(=O)n4C3CCCC3)c(Cl)c2)c(=O)[nH]c1=O is less than 4
Response: false

Prompt: Find out if reported Ratio for CC(C)n1c(=O)ccc2c1ccn2-c1c(Cl)cc(NC(=O)CC(=O)O)cc1Cl is less than 4
Response: true

Prompt: Find out if reported Ratio for CC(C)n1c(=O)ccc2c1ccn2-c1c(Cl)cc(-c2nn(C)c(=O)[nH]c2=O)cc1Cl is less than 4
Response: true

Prompt: Find out if reported Ratio for CCn1c(=O)ccc2c1ccn2-c1c(Cl)cc(-n2nc(C#N)c(=O)[nH]c2=O)cc1Cl is less than 4
Response: true
